Test: refractive index (Na D-line) (dimensionless)
Settings: 298.2 K; 101.33 kPa; Liquid; Standard Abbe refractometry
# Lookup of reported refractive index keyed by entry

COMPOUND	refractive index
CCCCOC(C)=O [butyl ethanoate]	1.3918
CCCCO [butan-1-ol]	1.3973
CC(C)CCO [3-methylbutan-1-ol]	1.4061
CCCCCCO [hexan-1-ol]	1.4161

----------
# Lookup of reported mass density keyed by entry
Conditions: 298.2 K; 101.33 kPa; Liquid; Vibrating tube method

COMPOUND	mass density / kg/m3
CCCCOC(C)=O [butyl ethanoate]	876.26
CCCCCCO	815.88
CC(C)CCO	808.94
CCCCO	806.01
